// provenance: paper PMC10663500

Biological target: T1, mouse programmed cell death protein 1 Fc fusion protein (mPD-1-Fc), mPD-1 C60S (aa 25-167) (Mus musculus, UniProt Q02242, stabilised)
T1 construct: not cleaved; source: Expi293F, purified (Protein A, SEC; dimeric fraction); not shown: Fc (human), C-terminal, kept
Test: SPR; Carterra LSA; Fab from the ammonium sulfate precipitate of the culture supernatant immobilised on a NiHC200M chip; hPD-1 (1-1024 nM) or mPD-1-Fc (4-1024 nM) as analyte, fourfold dilution series, no regeneration; HBS-EP pH 7.4, 25 °C; medians over the spots of a construct, KD = koff/kon
Conditions: one partner purified
Give measured pKd for each item. Keep answers brief.
// scale note: pKd = -log10(conc_M); give the bare number

Problem: Determine from records and report pKd for toripalimab Fab L.L101A (Fab, V domains shown, as the heavy chain of Sm3; light chain of Sm3 with this change; numbers count from the chain's first residue; source: Brevibacillus, culture supernatant (ammonium sulfate precipitate); not shown: 6xHis, C-terminal, kept; 6xHN, C-terminal, kept) VH: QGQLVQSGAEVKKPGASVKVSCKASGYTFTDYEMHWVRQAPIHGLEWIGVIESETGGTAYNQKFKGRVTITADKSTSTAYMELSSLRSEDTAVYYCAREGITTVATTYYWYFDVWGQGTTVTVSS VL: DVVMTQSPLSLPVTLGQPASISCRSSQSIVHSNGNTYLEWYLQKPGQSPQLLIYKVSNRFSGVPDRFSGSGSGTDFTLKISRVEAEDVGVYYCFQGSHVPATFGQGTKLEIK
Solution: 7.58

Problem: Please report pKd for the following binder: toripalimab Fab L.Q27Y (Fab, V domains shown, as the heavy chain of Sm3; light chain of Sm3 with this change; numbers count from the chain's first residue; source: Brevibacillus, culture supernatant (ammonium sulfate precipitate); not shown: 6xHis, C-terminal, kept; 6xHN, C-terminal, kept) VH: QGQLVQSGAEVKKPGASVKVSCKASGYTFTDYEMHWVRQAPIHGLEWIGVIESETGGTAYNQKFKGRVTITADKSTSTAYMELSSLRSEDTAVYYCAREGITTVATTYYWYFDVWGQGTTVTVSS VL: DVVMTQSPLSLPVTLGQPASISCRSSYSIVHSNGNTYLEWYLQKPGQSPQLLIYKVSNRFSGVPDRFSGSGSGTDFTLKISRVEAEDVGVYYCFQGSHVPLTFGQGTKLEIK
Solution: 6.67
